# Experimental details: xn = mol fraction of the nth substance listed, in the solute-free solvent
# Condition notes: 308.15 K; x2 = 0.03225
Classification field: enter t for solubility (g/100 g solution) values not below 0.07, f for values below it.

[
  {
    "Compound": "Nc1ncc(Br)nc1Br + CC(C)O + O",
    "Class label": "f"
  },
  {
    "Compound": "O=c1cc(CBr)c2ccccc2[nH]1 + CC(C)O + O",
    "Class label": "f"
  },
  {
    "Compound": "O=C1C=CC(=O)N1c1ccccc1Br + CC(C)O + O",
    "Class label": "t"
  },
  {
    "Compound": "CC(C)C(=O)Nc1ccc([N+](=O)[O-])c(C(F)(F)F)c1 + CC(C)O + O",
    "Class label": "f"
  }
]
